assay notes: Equilibrium solubility of Flubendazole in FaSSGF (RP-HPLC)
Assay type: physicochemical
assay conditions: FaSSGF (fasted state simulated gastric fluid), pH 1.6, fassgf or other biorelevant, thermodynamic from solid; FaSSGF (1.6 pH), excess Flubendazole rotated up to 72 hours; read-out: equilibrium solubility in FaSSGF medium
measure name: solubility thermodynamic at 72 h (µg/mL)
Kindly provide the numeric value in µg/mL only, without the unit symbol.

Inquiry: Any idea what its solubility thermodynamic at 72 h is? The compound is COC(=O)Nc1nc2cc(C(=O)c3ccc(F)cc3)ccc2[nH]1
Reply text: 11.2
